molecular target: 5-lipoxygenase (Rattus norvegicus, UniProt P12527); construct: supernatant fraction of Rat Basophilic Leukemia Cell Homogenate (RBL-1) serves as a 5-lipoxygenase enzyme source; endogenous in cells; experiment: Inhibition of 5-lipoxygenase, in vitro (5-HETE synthesis, RBL-1 homogenate supernatant); settings: RBL-1 100,000×g supernatant, [1-14C]-arachidonic acid and Ca++, 5-HETE by TLC; initial screen 1×10^-4 M
Sequence (P12527 whole entry): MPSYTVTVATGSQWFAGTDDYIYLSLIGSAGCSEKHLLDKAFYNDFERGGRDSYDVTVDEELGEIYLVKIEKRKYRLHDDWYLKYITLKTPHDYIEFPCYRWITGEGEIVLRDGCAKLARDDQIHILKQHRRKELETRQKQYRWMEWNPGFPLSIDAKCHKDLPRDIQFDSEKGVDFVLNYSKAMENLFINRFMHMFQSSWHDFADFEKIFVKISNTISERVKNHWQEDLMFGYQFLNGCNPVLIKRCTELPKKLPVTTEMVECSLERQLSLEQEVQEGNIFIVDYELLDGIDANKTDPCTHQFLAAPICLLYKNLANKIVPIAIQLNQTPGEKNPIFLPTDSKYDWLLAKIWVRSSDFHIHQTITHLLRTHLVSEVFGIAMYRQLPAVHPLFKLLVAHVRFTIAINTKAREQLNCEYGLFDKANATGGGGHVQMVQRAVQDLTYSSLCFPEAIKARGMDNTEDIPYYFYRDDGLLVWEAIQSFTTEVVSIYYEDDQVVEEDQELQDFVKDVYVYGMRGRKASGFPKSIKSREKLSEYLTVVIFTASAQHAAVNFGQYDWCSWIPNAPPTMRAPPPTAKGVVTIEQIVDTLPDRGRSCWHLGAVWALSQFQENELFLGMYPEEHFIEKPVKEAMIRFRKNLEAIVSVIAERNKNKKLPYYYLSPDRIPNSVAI
// reported IC50 for each item listed
outcomeMeasure: IC50 (µM)

[[record]]
molecule = "CCCCCSc1cc(C(C)(C)C)c(O)c(C(C)(C)C)c1 [Example 3]"
valueunit = "µM"
reported = 1.2

[[record]]
molecule = "CSc1cc(C(C)(C)C)c(O)c(C(C)(C)C)c1 [Example 5]"
valueunit = "µM"
reported = 0.58

[[record]]
molecule = "CC(C)Sc1cc(C(C)(C)C)c(O)c(C(C)(C)C)c1 [Example 4]"
valueunit = "µM"
reported = 1.3

[[record]]
molecule = "COc1c(C(C)(C)C)cc(SC)cc1C(C)(C)C [Example 8]"
valueunit = "µM"
reported = 100

[[record]]
molecule = "CSc1c(O)c(C(C)(C)C)cc(C(C)(C)C)c1O [Example 9]"
valueunit = "µM"
reported = 11

[[record]]
molecule = "C[S+]([O-])c1cc(C(C)(C)C)c(O)c(C(C)(C)C)c1 (stereo not drawn) [Example 6]"
valueunit = "µM"
reported = 100

